Hello, the source for this data is patent US20260139055A1, in case you need it.

For each of the binders below, state its pKd.
Molecular target: canine FcRn complex (FcRn-alpha subunit and beta-microglobulin), His-tagged, biotin labeled (canine)
Test: SPR (Biacore), biotin-FcRn captured on SA surface, IgG flowed over, pH 6, 15 C
Numbers only, as −log10 of the molar value.

Below are worked cases with known answers.
{"Binder": "canine IgGB (65) mAb with mutation T286S (antibody, part only; not given: Variable domains, not shown: another chain or arm of the molecule) constant: ASTTAPSVFPLAPSCGSTSGSTVALACLVSGYFPEPVTVSWNSGSLTSGVHTFPSVLQSSGLYSLSSMVTVPSSRWPSETFTCNVAHPASKTKVDKPVPKRENGRVPRPPDCPKCPAPEMLGGPSVFIFPPKPKDTLLIARTPEVTCVVVDLDPEDPEVQISWFVDGKQMQSAKTQPREEQFNGTYRVVSVLPIGHQDWLKGKQFTCKVNNKALPSPIERTISKARGQAHQPSVYVLPPSREELSKNTVSLTCLIKDFFPPDIDVEWQSNGQQEPESKYRTTPPQLDEDGSYFLYSKLSVDKSRWQRGDTFICAVMHEALHNHYTQESLSHSPGK", "Observed": 8.18}
{"Binder": "canine IgGB (65) mAb with mutation A426P (antibody, part only; not given: Variable domains, not shown: another chain or arm of the molecule) constant: ASTTAPSVFPLAPSCGSTSGSTVALACLVSGYFPEPVTVSWNSGSLTSGVHTFPSVLQSSGLYSLSSMVTVPSSRWPSETFTCNVAHPASKTKVDKPVPKRENGRVPRPPDCPKCPAPEMLGGPSVFIFPPKPKDTLLIARTPEVTCVVVDLDPEDPEVQISWFVDGKQMQTAKTQPREEQFNGTYRVVSVLPIGHQDWLKGKQFTCKVNNKALPSPIERTISKARGQAHQPSVYVLPPSREELSKNTVSLTCLIKDFFPPDIDVEWQSNGQQEPESKYRTTPPQLDEDGSYFLYSKLSVDKSRWQRGDTFICPVMHEALHNHYTQESLSHSPGK", "Observed": 7.63}
{"Binder": "canine IgGB (65) mAb with mutation Y436E (antibody, part only; not given: Variable domains, not shown: another chain or arm of the molecule) constant: ASTTAPSVFPLAPSCGSTSGSTVALACLVSGYFPEPVTVSWNSGSLTSGVHTFPSVLQSSGLYSLSSMVTVPSSRWPSETFTCNVAHPASKTKVDKPVPKRENGRVPRPPDCPKCPAPEMLGGPSVFIFPPKPKDTLLIARTPEVTCVVVDLDPEDPEVQISWFVDGKQMQTAKTQPREEQFNGTYRVVSVLPIGHQDWLKGKQFTCKVNNKALPSPIERTISKARGQAHQPSVYVLPPSREELSKNTVSLTCLIKDFFPPDIDVEWQSNGQQEPESKYRTTPPQLDEDGSYFLYSKLSVDKSRWQRGDTFICAVMHEALHNHETQESLSHSPGK", "Observed": 8.28}

// moving on: another record for pKd
In: Recall and state the measured pKd for canine IgGB (65) mAb with mutation D312V (antibody, part only; not given: variable domains of unnamed mAb, not shown: another chain or arm of the molecule) constant: ASTTAPSVFPLAPSCGSTSGSTVALACLVSGYFPEPVTVSWNSGSLTSGVHTFPSVLQSSGLYSLSSMVTVPSSRWPSETFTCNVAHPASKTKVDKPVPKRENGRVPRPPDCPKCPAPEMLGGPSVFIFPPKPKDTLLIARTPEVTCVVVDLDPEDPEVQISWFVDGKQMQTAKTQPREEQFNGTYRVVSVLPIGHQVWLKGKQFTCKVNNKALPSPIERTISKARGQAHQPSVYVLPPSREELSKNTVSLTCLIKDFFPPDIDVEWQSNGQQEPESKYRTTPPQLDEDGSYFLYSKLSVDKSRWQRGDTFICAVMHEALHNHYTQESLSHSPGK .
Out: 7.85
